From: paper PMC5691035

target entity: Pfs25, monomeric, produced in Nicotiana benthamiana (Plasmodium falciparum (NF54; identical …, UniProt P13829)
Sequence (P13829 22-193): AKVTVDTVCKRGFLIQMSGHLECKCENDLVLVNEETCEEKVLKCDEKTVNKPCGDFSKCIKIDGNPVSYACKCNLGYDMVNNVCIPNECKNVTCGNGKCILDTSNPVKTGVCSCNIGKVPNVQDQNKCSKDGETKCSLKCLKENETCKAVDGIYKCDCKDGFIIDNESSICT
test method notes: BLI
condition parameters: both partners purified
Parameter koff: see the listing below.
measurement name: koff (s⁻¹)

{"binder": "1267 Fab (Fab, V domains shown, source: HEK293F, transiently expressed, purified (LambdaSelect or KappaSelect, MonoS, Superdex 200)) VH: QVQLQQSGPGLVKPSQTLSLTCAISGDSVSSNSAAWNWIRQSPSRGLEWLGRTYYRSKWYNDYAVSVRGRITINPDTSKNHFSLQLNSVTPEDTAVYFCARDLMTNSGWYVYFDCWGQGTLVTVSS VL: SYELTQPPSVSVSPGQSARITCSGDALPMKYAYWYQQKSGQAPVLVIYEDSKRPSGIPERFSGSSSGTMATLTISGAQVEDEADYYCFSTDSSGNHRVFGGGTKLT", "reading unit": "s⁻¹", "observed measurement": 0.0032}
{"binder": "1266 Fab (Fab, V domains shown, source: HEK293F, transiently expressed, purified (LambdaSelect or KappaSelect, MonoS, Superdex 200)) VH: QVQLQQSGPGLVKPSQTLSLTCAISGDSVSSNSAAWNWIRQSPSRGLEWLGRTYYRSKWYNDYAVSVKSRITINADTSKNQFSLQLNSVTPEDTAVYYCVRDLLGSSGWYVFFDNWGQGTLVTVSS VL: SYELTQPPSVSVSPGQSARITCSGDALPMKYAYWYQQKSGQAPVLVIYEDSKRPSGIPERFSGSSSGTMATLTISGAQVEDEADYYCFSTDSSGNHRVFGGGTKLT", "reading unit": "s⁻¹", "observed measurement": 0.012}
{"binder": "1268 Fab (Fab, V domains shown, source: HEK293F, transiently expressed, purified (KappaSelect or LambdaSelect, MonoS, Superdex 200)) VH: EVQLVESGGGLVKPGGSLRLSCAASGFTFSRYSMNWVRQAPGKGLEWVSSISSRSSYKYYVDSVKGRFTISRDNAKNSLYLQMNSLRAEDTAVYYCARDDYGSGSYYYNWLDPWGQGTLVTVSS VL: DIQLTQSPSFLSASVGDRVTITCWASQGISSFLAWYQQKPGKAPKLLIYAASTLESGVPSRFSGSGSGTEFTLTISSLQPEDFATYYCQQLNSYPRTFGQGTKVEIK", "reading unit": "s⁻¹", "observed measurement": 0.006}
